Several publications report IC50 on Tyrosine-protein kinase JAK2 (Homo sapiens, UniProt O60674); those values are gathered here.

stdin: Report IC50 for Cn1cc(Nc2ncc(Cl)c(NC3CC4CN(S(C)(=O)=O)CC4C3)n2)cn1 (stereo not drawn) please.
stdout: 0.012 µM

stdin: Report IC50 for O=C(NCCC1CC1)c1n[nH]c2c1CN(c1ncnc3[nH]ccc13)CC2 please.
stdout: 0.1 to 0.5 µM

stdin: Report IC50 for Cc1cc2ccc1-c1nc(ncc1C)Nc1ccc(Cl)c(c1)COCCCCNC2=O please.
stdout: > 10 µM

stdin: Report IC50 for O=C(CN1CCCCC1)Nc1cccc(-c2cnc3ccccc3n2)c1 please.
stdout: > 10 µM

stdin: Report IC50 for N#CCC1(n2cc(-c3c(F)cnc4[nH]ccc34)cn2)CN(C2CCN(C(=O)c3ccnc(C(F)(F)F)c3F)CC2)C1 please.
stdout: 0.01 to 0.05 µM

stdin: Report IC50 for Cc1ncc(NC(=O)c2cc(-n3cnc(CO)c3)cc(C(F)(F)F)c2)cc1-c1ccc2c(c1)[nH]c1ncncc12 please.
stdout: ≤ 0.5 µM

stdin: Report IC50 for N#CCC1(n2cc(-c3ncnc4[nH]ccc34)cn2)CN(C2CCN(C(=O)Nc3ccsc3)CC2)C1 please.
stdout: 0.05 to 0.1 µM

stdin: Report IC50 for CCC(=O)c1cnc(Nc2cnc(C3(NC)CC3)cn2)cc1Nc1cccc(-c2ncn(C)n2)c1OC please.
stdout: ≥ 0.5 µM

stdin: Report IC50 for N#Cc1cc(-c2ncnc(Nc3ccc(N4CCO[C@@H](CO)C4)cc3)n2)ccc1OC1CCNCC1(F)F (stereo partly drawn) please.
stdout: 0.311 µM

stdin: Report IC50 for Cc1nccc(-c2cnc3[nH]ccc3c2N[C@@H]2C[C@H](C)CN(C(=O)CC#N)C2)n1 please.
stdout: ≤ 0.01 µM

stdin: Report IC50 for CCS(=O)(=O)N1CC(CC#N)(n2cc(-c3nc(Nc4cn[nH]c4)nc4ccsc34)cn2)C1 please.
stdout: < 0.05 µM

stdin: Report IC50 for Cc1cc(OC2CCC(CC#N)(n3cc(-c4ccnc(Nc5ccc(N6CCCCC6=O)cc5)n4)cn3)CC2)no1 (single isomer, unassigned) please.
stdout: < 0.1 µM

stdin: Report IC50 for COc1cnc(Nc2cccnc2)nc1-c1cnn(C(CC#N)CC2CCN(C(=O)c3ccc(F)cc3F)CC2)c1 (racemic) please.
stdout: < 0.1 µM

stdin: Report IC50 for CCC(=O)c1cnc(Nc2cc(CN3CCCC3)ncn2)cc1Nc1cccc(-c2ncn(C)n2)c1OC please.
stdout: ≥ 0.5 µM

stdin: Report IC50 for Cn1cc(-c2cc3nccn3c(-c3cnn(C4(CC#N)CCN(CC(F)(F)F)CC4)c3)n2)cn1 please.
stdout: 0.1 to 1 µM
